// data source = patent US20190307729A1

Can you tell me inhibition at 50 µM for the items I'm about to list?
test system: S. aureus Mu3; experiment: Secondary screening of compound 13 analogues in combination with gentamicin (growth by OD 595 nm); settings: Staphylococcus aureus, MU3, read-out: 50 μM + 200 μg/ml Gentamicin Growth inhibition Percentage
Answers are plain numbers, in %.

Solved cases below.
O=C(O)CN1C(=O)/C(=C/c2cccc(OCc3ccc(Cl)cc3Cl)c2)SC1=S	87
O=C(O)CN1C(=O)/C(=C/c2ccc(OCc3ccccc3)cc2)SC1=S	92
COc1cc(/C=C2\SC(=S)N(CC(=O)O)C2=O)ccc1OCc1ccc(Br)cc1	53

Prompt: Entry COc1cc(/C=C2\SC(=S)N(CC(=O)O)C2=O)ccc1OCc1ccccc1F : reported inhibition at 50 µM = ?
Completion: 58
